Cited source: the RNAGym collection of RNA variant scans (doi:10.1073/pnas.2313332121)

B1: TPR t1 (parent)
chain: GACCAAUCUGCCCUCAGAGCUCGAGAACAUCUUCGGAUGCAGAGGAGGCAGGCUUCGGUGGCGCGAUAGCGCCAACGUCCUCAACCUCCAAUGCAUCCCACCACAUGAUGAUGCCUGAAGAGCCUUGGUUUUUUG

Variants of: B1
method_description: polymerase ribozyme fitness, log enrichment relative to wild type (log ratio); higher = more active; in vitro selection for triplet polymerase activity
metric_name: polymerase ribozyme fitness (log ratio)

* GACCAAUCUGCCCUCAGAGCUCGAGAACAUCUUCGGAUGCAGAGGAGGCAGGCUUCGGUGGCGCGAUAGCGUCAACGUCCUCAGCCUCCAAUGCAUCCCACCACAUGAUGAUGCCUCAAGAGCCUUGGUUUUUUG [C72U A84G G117C] | -4.48
* GACCAAUCUGCCCUCAGAGCUCGAGAACAUCUUCGGAUGCAGAGGAGGCCGGCUUCGGUGGCGCGAUAGCGCCAACGUCCUCAACCUCCAAUGCAUCCCACCACAAGAUAAUGCCUGAAGAGCCUUCGUUUUUUG [A50C U106A G110A G127C] | -3.34
* GACCAAUCUGCCCUCAGAGCUCGAGAACAUCUUCGGAUGCAGAGGAGGGAGGCUUCGGGGGCGCGAUAGCGCCAACGUCCUCAACCUCCAAUGCAUCCCACCACAUGAUGAUGCCUGAAGAGCCUUGGUUUUUUG [C49G U59G] | -0.612
* GACCAAUCUGCCCCCAGAGCUCGAGAACAUCUUCGGAUGCAGAGGAGGCAGGCUUCGGUGGCGCGAUAGCUCCAACGUCCUCAACCUCCAUUGCAUCCCACCACAUGAUGAUGACUGAAGUGCUUUGGUUUUUUG [U14C G71U A91U C114A A121U C124U] | -4.54
* GACCAAUCUGCCCUCAGAGCUCGAGAACAUCUUCGGAUGCAGAGGAUGCAGGCUUCGGUGGGGCGAUAGCGCCAACGUCCUCAACCUCCAAUGCAUCCCACCACAUGAUGAUGCCUGAAGAGCCUUGGUUUUUUG [G47U C62G] | -3.76
* GACCAAUCUGCCCUCAGAGCUCGAGAACAUCUUCGGAUGCAGAGGAGGCAGGCUUCGGUGGCGCGAUAGCGCAAACGUUCUCAACAUCCAAUGCAUCCCACCACAUGAUGAUGCUUGAAGAGCCUUGGUUUUUUG [C73A C79U C86A C115U] | -3.26
* GACCAAUCUGCCCUCAUAGCUCGAGAACAUCUUCGGAUGCAGAGGAGGCAGGCUUCGGUGGCGCGAUAGCUCCAACGUCCUCAACCUCCAAUGCAUCCCACCACAUGAUGAUGCCUGAAGAGCCUUGGUUUUUUG [G17U G71U] | -2.1
* GACCAAUCUGCCCUCUGAGCUCGAGAACAUCUUCGGCUGCAGAGGAGGCAGGCUUCGGUGGCGCGAUAGCUCCAACGUCCUCAACCUCCAAUGCAUCCCACCACAUGAUGUUGCCUGAAGAGCCUUGGUUUUUUG [A16U A37C G71U A111U] | -5.61
* GACCAAUCUGCCCUCAGAGCUCGAGAACAUCUUCGGAUGCAGAGGAGGCAGGCUUCGGUGGCGCGAUAGCGCCAACGUCCUCAACCUCCAAUGCAUCCCAACACAUGAUGAUACCUGAAGACCCUUGGUUUUUUG [C101A G113A G122C] | -1.6
* GACCAAUCUGCCCUCAGAGCUCGAGAACAUCUUCGGAUGGAGAAGAGGCAGGCUUCGGUGGCGCGAUAGCGCCAACGUCCUCAACCUCCAAUGCAUCUCACCACAUGAUGAUGCCUGAAGAGCCUUGGUUUUUUG [C40G G44A C98U] | -5.49
* GACCAAUCUGCCCUCAGAGCUCGAGAACAUCUACGGAUGCAGAGGAGGCAGUCUUCGGUGGCGCGAUAGCGCCAACGUCCUCAACCUCCAAUGCAUCCCACCACAUGAUGAUGCAUGAAGAGCCUUGGUUUUUUG [U33A G52U C115A] | -4.73
